Biological target: T1, VCL 1-259 Vinculin (domain begin residue: 1, domain end residue: 259), P18206
T1 chain: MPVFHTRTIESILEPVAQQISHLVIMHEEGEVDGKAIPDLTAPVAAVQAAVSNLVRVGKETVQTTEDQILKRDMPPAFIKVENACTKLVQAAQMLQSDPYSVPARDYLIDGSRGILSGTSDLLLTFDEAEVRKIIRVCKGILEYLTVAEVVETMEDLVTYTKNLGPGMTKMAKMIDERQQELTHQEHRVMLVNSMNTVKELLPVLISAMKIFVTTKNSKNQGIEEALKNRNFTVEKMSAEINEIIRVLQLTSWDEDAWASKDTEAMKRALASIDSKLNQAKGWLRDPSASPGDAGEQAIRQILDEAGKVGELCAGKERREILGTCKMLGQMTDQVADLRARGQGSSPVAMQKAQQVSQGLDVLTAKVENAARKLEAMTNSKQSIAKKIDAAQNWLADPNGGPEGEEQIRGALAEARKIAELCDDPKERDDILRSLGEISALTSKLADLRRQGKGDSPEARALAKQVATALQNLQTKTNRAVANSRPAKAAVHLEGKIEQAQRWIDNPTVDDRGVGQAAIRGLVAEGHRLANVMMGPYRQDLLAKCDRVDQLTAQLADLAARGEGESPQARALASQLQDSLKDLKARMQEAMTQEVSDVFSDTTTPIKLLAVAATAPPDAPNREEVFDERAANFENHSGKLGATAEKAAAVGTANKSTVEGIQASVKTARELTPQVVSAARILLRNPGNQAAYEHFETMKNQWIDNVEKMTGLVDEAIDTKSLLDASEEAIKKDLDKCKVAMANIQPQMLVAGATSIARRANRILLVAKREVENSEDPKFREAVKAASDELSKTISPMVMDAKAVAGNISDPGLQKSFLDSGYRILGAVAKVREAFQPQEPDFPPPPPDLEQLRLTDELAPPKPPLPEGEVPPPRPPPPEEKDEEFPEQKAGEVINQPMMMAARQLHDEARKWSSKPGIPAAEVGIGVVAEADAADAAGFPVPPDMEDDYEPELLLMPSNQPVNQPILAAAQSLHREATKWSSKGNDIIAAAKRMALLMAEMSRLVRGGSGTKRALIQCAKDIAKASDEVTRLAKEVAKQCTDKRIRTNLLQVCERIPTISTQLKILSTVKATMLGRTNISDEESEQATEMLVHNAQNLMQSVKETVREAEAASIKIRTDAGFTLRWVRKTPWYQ
Assay: phage ELISA signal ratio (GST-PRM binding over GST background); higher = stronger binding of peptide-phage to the PRM
ENDPOINT NAME: phage ELISA signal ratio

Take a look at these entries with their results.
BINDER	ENDPOINT NAME	MEAS VALUE
DNFENWIENWLLEYNG	phage ELISA signal ratio	9.78
VDDQEWPNMEMLLGIV	phage ELISA signal ratio	17.4
WPDDLDWGTWLETLPL	phage ELISA signal ratio	13.3
WGSEDTQYWLEYVNSV	phage ELISA signal ratio	24.6

Please give phage ELISA signal ratio for each item listed below.
1. WDPQADWQEQVQYWLV
2. LDSFWDAENVIRSIMI
3. FPQMWQSPDFWEDWLL
4. LWDWTPETEQWFQEIV
5. HEIWETDWQWIIDQAY

Result string:
[20.4, 12.9, 12.6, 13.5, 20.4]
